These data points were gathered from paper PMC11749085.

# TESTED ON: LgBiT-YAP-CC / SmBiT-PPM1B (Homo sapiens, UniProt P46937)
# Construct: with Protein phosphatase 1B
# Sequence (P46937 298-328): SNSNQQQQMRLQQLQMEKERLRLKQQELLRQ
# Sequence (O75688 2-479 partner): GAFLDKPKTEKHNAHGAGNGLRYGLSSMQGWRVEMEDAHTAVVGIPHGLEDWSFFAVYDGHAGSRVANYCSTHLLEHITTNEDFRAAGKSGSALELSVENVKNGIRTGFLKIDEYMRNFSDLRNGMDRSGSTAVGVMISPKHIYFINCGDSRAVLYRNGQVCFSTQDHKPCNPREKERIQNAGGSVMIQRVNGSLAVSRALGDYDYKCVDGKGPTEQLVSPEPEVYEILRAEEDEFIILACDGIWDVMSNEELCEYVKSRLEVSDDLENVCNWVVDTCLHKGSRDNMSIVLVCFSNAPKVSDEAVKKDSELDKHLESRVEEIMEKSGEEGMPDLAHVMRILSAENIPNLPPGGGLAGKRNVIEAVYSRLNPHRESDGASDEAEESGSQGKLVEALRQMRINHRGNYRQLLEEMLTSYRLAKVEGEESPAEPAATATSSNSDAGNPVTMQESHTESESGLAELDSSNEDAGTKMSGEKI
# ASSAY INFO: NanoBiT split-luciferase protein-protein interaction assay in HeLa cells
MEASURED QUANTITY: pIC50
Friendly reminder that pIC50 comes from taking -log10 of the concentration in mol/L.

# input compound: C[C@@]12C[C@@]3(O)O[C@@H](O1)[C@]1(COC(=O)c4ccccc4)[C@H]3C[C@@]12O[C@@H]1O[C@H](CO)[C@@H](O)[C@H](O)[C@H]1O [paeoniflorin] ; wanted: its pIC50 5.32

* * *

# TESTED ON: YAP-CC domain (Homo sapiens, UniProt P46937)
# Sequence (P46937 298-328): as the sequence (P46937 298-328) above
MEASURED QUANTITY: pKd
Friendly reminder that pKd comes from taking -log10 of the concentration in mol/L.

# input compound: `C[C@@]12C[C@@]3(O)O[C@@H](O1)[C@]1(COC(=O)c4ccccc4)[C@H]3C[C@@]12O[C@@H]1O[C@H](CO)[C@@H](O)[C@H](O)[C@H]1O` ; wanted: its pKd 4.39
